# Tested on: PANC-02-03 (Pancreatic Carcinoma);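 also: after 72 h of two-drug dosing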
# ASSAY COMMENT: Bliss excess, mean over the matrix (fraction); higher = more synergy
Class (by Bliss excess) -- bucket 1: < -0.06; bucket 2: ≥ -0.06 and < -0.002; bucket 3: ≥ -0.002

Which Bliss excess band matches COc1nnc2ccc(N3CCC(c4ccc(OCCN5CCN(C)C(=O)[C@H]5C)cc4)CC3)nn12 [AZD5153] + C=CCn1c(=O)c2cnc(Nc3ccc(N4CCN(C)CC4)cc3)nc2n1-c1cccc(C(C)(C)O)n1 [AZD1775] (first compound max 1 µM, partner max 1 µM) ?
bucket 1

Into which category would you place N#Cc1cnc(Nc2cc(NC[C@H]3CNCCO3)c(C(F)(F)F)cn2)cn1 [SRA737] + CCc1c2c(nc3ccc(O)cc13)-c1cc3c(c(=O)n1C2)COC(=O)[C@]3(O)CC [SN-38] (first compound max 10 µM, 7x7, partner max 0.3 µM) ?
bucket 1

Class? Entry: Cc1c2c(nn1C)CSCc1cc(n(C)n1)CSc1cc(c3ccccc3c1)OCCCc1c(C(=O)O)n(C)c3c-2c(Cl)ccc13 [AZD5991] + Nc1ccn([C@@H]2O[C@H](CO)[C@@H](O)C2(F)F)c(=O)n1 [Gemcitabine] (first compound max 1 µM, 7x7, partner max 0.3 µM)
bucket 2

Quick check: band for Cc1c2c(nn1C)CSCc1cc(n(C)n1)CSc1cc(c3ccccc3c1)OCCCc1c(C(=O)O)n(C)c3c-2c(Cl)ccc13 [AZD5991] + C[C@@H]1COCCN1C2=NC(=NC(=C2)C3(CC3)[S@](=N)(=O)C)C4=C5C=CNC5=NC=C4 [AZD6738] (first compound max 1 µM, 7x7, partner max 10 µM)
bucket 3

Category of Cc1c2c(nn1C)CSCc1cc(n(C)n1)CSc1cc(c3ccccc3c1)OCCCc1c(C(=O)O)n(C)c3c-2c(Cl)ccc13 [AZD5991] + CN(C)CCCOc1ccc(-c2ccc3ncc4c(c3c2)n(C2CCOCC2)c(=O)n4C)cn1 [AZD0156] (first compound max 1 µM, 7x7, partner max 1 µM) , please.
bucket 2

Which Bliss excess category applies to COc1nnc2ccc(N3CCC(c4ccc(OCCN5CCN(C)C(=O)[C@H]5C)cc4)CC3)nn12 [AZD5153] + CCN(CCO)CCCOc1ccc2c(Nc3cc(CC(=O)Nc4cccc(F)c4)[nH]n3)ncnc2c1 [AZD2811] (first compound max 1 µM, 7x7, partner max 1 µM) here?
bucket 1

Dear colleague, I would appreciate it if you could identify the bin for COc1nnc2ccc(N3CCC(c4ccc(OCCN5CCN(C)C(=O)[C@H]5C)cc4)CC3)nn12 [AZD5153] + Cn1cnc2c(F)c(Nc3ccc(Br)cc3Cl)c(C(=O)NOCCO)cc21 [Selumetinib] (first compound max 1 µM, 7x7, partner max 10 µM) and reply at your convenience.
bucket 3

Pick a category. Item: Cc1c2c(nn1C)CSCc1cc(n(C)n1)CSc1cc(c3ccccc3c1)OCCCc1c(C(=O)O)n(C)c3c-2c(Cl)ccc13 [AZD5991] + C1CN(CCC1(C(=O)N[C@@H](CCO)C2=CC=C(C=C2)Cl)N)C3=NC=NC4=C3C=CN4 [Capivasertib] (first compound max 1 µM, 7x7, partner max 3 µM)
bucket 2

In plain terms, what class is CC(=O)Nc1cccc(-n2c(=O)n(C3CC3)c(=O)c3c(Nc4ccc(I)cc4F)n(C)c(=O)c(C)c32)c1 [Trametinib] + Cc1nc(-c2cn3c(n2)-c2ccc(-c4cnn(C(C)(C)C(N)=O)c4)cc2OCC3)n(C(C)C)n1 [Taselisib] (first compound max 1 µM, 7x7, partner max 10 µM) ?
bucket 3

Class label required: CCN(CCO)CCCOc1ccc2c(Nc3cc(CC(=O)Nc4cccc(F)c4)[nH]n3)ncnc2c1 [AZD2811] + C[C@@H]1COCCN1C2=NC(=NC(=C2)C3(CC3)[S@](=N)(=O)C)C4=C5C=CNC5=NC=C4 [AZD6738] (first compound max 1 µM, 7x7, partner max 10 µM)
bucket 1

Exam item: assign C=CCn1c(=O)c2cnc(Nc3ccc(N4CCN(C)CC4)cc3)nc2n1-c1cccc(C(C)(C)O)n1 [AZD1775] + O=C(c1cc(Cc2n[nH]c(=O)c3ccccc23)ccc1F)N1CCN(C(=O)C2CC2)CC1 [Olaparib] (first compound max 1 µM, partner max 10 µM) to the correct category.
bucket 2

Categorize the following entry: C[C@@H]1COCCN1c1cc(C2([S@](C)(=N)=O)CC2)nc(-c2ccnc3[nH]ccc23)n1 [AZD6738] + O=C(c1cc(Cc2n[nH]c(=O)c3ccccc23)ccc1F)N1CCN(C(=O)C2CC2)CC1 [Olaparib] (first compound max 10 µM, 7x7, partner max 10 µM)
bucket 3

Kindly state the category for this compound: CC1(C)CCC(CN2CCN(c3ccc(C(=O)NS(=O)(=O)c4ccc(NCC5CCOCC5)c([N+](=O)[O-])c4)c(Oc4cnc5[nH]ccc5c4)c3)CC2)=C(c2ccc(Cl)cc2)C1 [Venetoclax] + Cc1cc2ncnn2cc1Nc1ncc2c(n1)n(C1CCOCC1)c(=O)n2C [AZD7648] (first compound max 1 µM, 7x7, partner max 10 µM)
bucket 1

Hey, which category is COc1cccc(OCCCN)c1-c1cc(Nc2cnc(C#N)cn2)n[nH]1 [Prexasertib] + Cc1cc2ncnn2cc1Nc1ncc2c(n1)n(C1CCOCC1)c(=O)n2C [AZD7648] (first compound max 1 µM, 7x7, partner max 10 µM) in, do you know?
bucket 3

The reported measurements were obtained from the supplement of paper PMC11061612.
